Catalogue of Average EC50, pSTAT5 assay in pan T cells, MMP2 cleaved molecule values
assay system: T1, IL-2 receptor βγ complex on pan T cells (human, UniProt P14784 27-551; P31785 23-369)
T1 sequence (looked up) 1: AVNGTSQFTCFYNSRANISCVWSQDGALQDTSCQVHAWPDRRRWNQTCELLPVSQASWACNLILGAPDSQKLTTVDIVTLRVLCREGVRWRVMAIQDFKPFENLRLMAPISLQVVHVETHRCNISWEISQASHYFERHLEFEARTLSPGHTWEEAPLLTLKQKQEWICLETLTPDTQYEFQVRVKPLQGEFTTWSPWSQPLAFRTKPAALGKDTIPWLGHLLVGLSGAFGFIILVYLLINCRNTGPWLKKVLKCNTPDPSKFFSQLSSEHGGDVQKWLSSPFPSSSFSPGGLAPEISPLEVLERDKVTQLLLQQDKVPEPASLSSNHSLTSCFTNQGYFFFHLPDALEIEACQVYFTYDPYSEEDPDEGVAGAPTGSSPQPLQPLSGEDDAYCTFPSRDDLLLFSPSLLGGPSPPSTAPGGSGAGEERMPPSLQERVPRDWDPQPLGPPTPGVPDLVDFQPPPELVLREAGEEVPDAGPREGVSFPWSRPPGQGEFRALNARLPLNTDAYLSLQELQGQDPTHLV
T1 sequence (looked up) 2: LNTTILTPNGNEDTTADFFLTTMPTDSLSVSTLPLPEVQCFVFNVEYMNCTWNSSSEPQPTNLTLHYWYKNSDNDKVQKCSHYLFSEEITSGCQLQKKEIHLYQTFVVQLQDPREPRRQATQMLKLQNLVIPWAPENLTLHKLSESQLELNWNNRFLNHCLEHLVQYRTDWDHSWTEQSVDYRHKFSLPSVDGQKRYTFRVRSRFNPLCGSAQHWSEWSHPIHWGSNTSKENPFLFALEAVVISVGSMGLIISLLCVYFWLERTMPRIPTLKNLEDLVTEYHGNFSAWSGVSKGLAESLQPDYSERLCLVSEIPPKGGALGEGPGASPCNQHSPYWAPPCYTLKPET
assay overview: cell-based or functional assay
Primed or numbered codes have the meaning given here. [ ]: non-standard residue; d: D form. Ygp = O-(8x polyethylene glycol-amino)-tyrosine; Yn3 = O-(9x polyethylene glycol-azido)-tyrosine; PEG16′ = 16x polyethylene glycol; hSer = N[C@@H](CCO)C(=O)O; Nle = CCCC[C@H](N)C(=O)O
Respond with the bare value in nM.

CMP-154, MMP2 cleaved (ligand, also: macrocycle (9x PEG linker between residue 1 and Glu35 side chain) opened by MMP2 cleavage within PLGLAG, cut site not given here) PLGLAGAPTSSSTKKTQLQLEHLLLDLQ[Nle]ILNGIENYKNPKLTR[Nle]L[hSer][Yn3]KF[Ygp][Nle]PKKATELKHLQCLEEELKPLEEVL[hSer]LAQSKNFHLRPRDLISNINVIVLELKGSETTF[hSer]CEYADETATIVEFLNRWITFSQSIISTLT	4.2
CMP-159, MMP2 cleaved (ligand, not fully specified (bridges); ends and bridges not checked; also: cleaved by MMP2 (macrocycle opened), cut site not given here) PLGLAGAPTSSSTKKTQLQLEHLLLDLE[Nle]ILNGINNYKNPKLTR[Nle]L[hSer][Yn3]KF[Ygp][Nle]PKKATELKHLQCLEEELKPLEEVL[hSer]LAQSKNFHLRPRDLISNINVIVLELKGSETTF[hSer]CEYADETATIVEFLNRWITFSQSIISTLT	2.27
CMP-136, MMP2 cleaved (ligand, not fully specified; as CMP-136 but cleavable peptide cut by MMP2 (macrocycle opened); cut site not given) APTSSSTKKTQLQLEHLLLDLQXILNGIENYKNPKLTRXLXYKFYXPKKATELKHLQCLEEELKPLEEVLXLAQSKNFHLRPRDLISNINVIVLELKGSETTFXCEYADETATIVEFLNRWITFSQSIISTLT	2.4

Query string: Returns the measured Average EC50, pSTAT5 assay in pan T cells, MMP2 cleaved molecule for the input binder. Input: CMP-157, MMP2 cleaved (ligand, also: macrocycle (4x PEG linker between residue 1 and Glu25 side chain) opened by MMP2 cleavage within PLGLAG, cut site not given here) PLGLAGAPTSSSTKKTQLQLEHLLEDLQ[Nle]ILNGINNYKNPKLTR[Nle]L[hSer][Yn3]KF[Ygp][Nle]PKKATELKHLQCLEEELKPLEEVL[hSer]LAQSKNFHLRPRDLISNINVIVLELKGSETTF[hSer]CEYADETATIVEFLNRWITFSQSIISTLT
Result string: 10

Query string: Continue with CMP-161, MMP2 cleaved (ligand, not fully specified; ends and bridges not checked; also: before cut, residues 1..32 linked via PEG9 (Glu32 side chain)) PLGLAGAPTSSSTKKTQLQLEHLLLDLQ[Nle]ILEGINNYKNPKLTR[Nle]L[hSer][Yn3]KF[Ygp][Nle]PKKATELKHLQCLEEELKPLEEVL[hSer]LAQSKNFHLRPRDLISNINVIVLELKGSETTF[hSer]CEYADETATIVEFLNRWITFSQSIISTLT
Result string: 3.59

Query string: Continue with CMP-162, MMP2 cleaved (ligand, not fully specified (residue 23); ends and bridges not checked; also: cleavable peptide on Lys23 cut by MMP2, remnant stays attached, cut site not given here) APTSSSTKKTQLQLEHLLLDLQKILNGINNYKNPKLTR[Nle]L[hSer][Yn3]KF[Ygp][Nle]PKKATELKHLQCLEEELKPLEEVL[hSer]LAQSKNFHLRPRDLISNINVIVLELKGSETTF[hSer]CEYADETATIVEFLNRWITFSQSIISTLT
Result string: 0.758

Query string: Continue with CMP-139, MMP2 cleaved (ligand, numbers in words are those of the source; ends and bridges not checked; also: cleavable peptide cut by MMP2, macrocycle opened, cut site not given here) [PEG16′]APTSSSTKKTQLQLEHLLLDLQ[Nle]ILNGIE(PEG16′)NYKNPKLTR[Nle]L[hSer][Yn3]KF[Ygp][Nle]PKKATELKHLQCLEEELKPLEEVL[hSer]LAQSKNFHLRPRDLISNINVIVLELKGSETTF[hSer]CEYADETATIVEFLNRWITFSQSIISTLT
Result string: 3.61
